Below are pKi values measured for Mu-type opioid receptor (Rattus norvegicus, UniProt P33535).
pKi: −log10 of the molar value. Where a SMILES comes first, the peptide text is derived from it.

MOLECULE	pKi
C[N+](C)(C)[C@@H](Cc1ccc(O)cc1)C(=O)N[C@H](CCCN=C(N)N)C(=O)N[C@@H](Cc1ccccc1)C(=O)N[C@@H](CCCCN)C(N)=O	6.68
NCCCC[C@H](NC(=O)[C@H](Cc1ccccc1)NC(=O)[C@@H](CCCN=C(N)N)NC(=O)[C@@H](N)Cc1ccc(O)cc1)C(N)=O	9.42
C[N+](C)(C)CCCC[C@H](NC(=O)[C@H](Cc1ccccc1)NC(=O)[C@@H](CCCNC(=N)N)NC(=O)[C@@H](N)Cc1ccc(O)cc1)C(N)=O	8.95
C[N+](C)(C)CC[C@H](NC(=O)[C@H](Cc1ccccc1)NC(=O)[C@H](CCCN=C(N)N)NC(=O)[C@@H](N)Cc1ccc(O)cc1)C(N)=O	8.12
NC(=O)[C@H](CCNC(=O)[C@H](Cc1ccccc1)NC(=O)[C@H](CCCN=C(N)N)NC(=O)[C@@H](N)Cc1ccc(O)cc1)NC(=O)[C@H](Cc1ccccc1)NC(=O)[C@H](CCCN=C(N)N)NC(=O)[C@@H](N)Cc1ccc(O)cc1 (HELM PEPTIDE1{Y.R.F.[Dab].[am]}|PEPTIDE2{Y.R.F}$PEPTIDE1,PEPTIDE2,4:R3-3:R2$$$V2.0)	9.29
C[N+](C)(C)CC[C@H](NC(=O)[C@H](Cc1ccccc1)NC(=O)[C@H](CCCNC(=N)N)NC(=O)[C@H](Cc1ccc(O)cc1)[N+](C)(C)C)C(N)=O	5.89
C[N+](C)(C)CCC[C@H](NC(=O)[C@H](Cc1ccccc1)NC(=O)[C@@H](CCCN=C(N)N)NC(=O)[C@@H](N)Cc1ccc(O)cc1)C(N)=O	8.63
C[N+](C)(C)[C@@H](Cc1ccc(O)cc1)C(=O)N[C@H](CCCN=C(N)N)C(=O)N[C@@H](Cc1ccccc1)C(=O)N[C@@H](CCCN)C(N)=O	5.72
